Values from patent US11912703B2

# System Name: human TLR7 (Homo sapiens (Human))
# Sequence (Q9NYK1 27-1049): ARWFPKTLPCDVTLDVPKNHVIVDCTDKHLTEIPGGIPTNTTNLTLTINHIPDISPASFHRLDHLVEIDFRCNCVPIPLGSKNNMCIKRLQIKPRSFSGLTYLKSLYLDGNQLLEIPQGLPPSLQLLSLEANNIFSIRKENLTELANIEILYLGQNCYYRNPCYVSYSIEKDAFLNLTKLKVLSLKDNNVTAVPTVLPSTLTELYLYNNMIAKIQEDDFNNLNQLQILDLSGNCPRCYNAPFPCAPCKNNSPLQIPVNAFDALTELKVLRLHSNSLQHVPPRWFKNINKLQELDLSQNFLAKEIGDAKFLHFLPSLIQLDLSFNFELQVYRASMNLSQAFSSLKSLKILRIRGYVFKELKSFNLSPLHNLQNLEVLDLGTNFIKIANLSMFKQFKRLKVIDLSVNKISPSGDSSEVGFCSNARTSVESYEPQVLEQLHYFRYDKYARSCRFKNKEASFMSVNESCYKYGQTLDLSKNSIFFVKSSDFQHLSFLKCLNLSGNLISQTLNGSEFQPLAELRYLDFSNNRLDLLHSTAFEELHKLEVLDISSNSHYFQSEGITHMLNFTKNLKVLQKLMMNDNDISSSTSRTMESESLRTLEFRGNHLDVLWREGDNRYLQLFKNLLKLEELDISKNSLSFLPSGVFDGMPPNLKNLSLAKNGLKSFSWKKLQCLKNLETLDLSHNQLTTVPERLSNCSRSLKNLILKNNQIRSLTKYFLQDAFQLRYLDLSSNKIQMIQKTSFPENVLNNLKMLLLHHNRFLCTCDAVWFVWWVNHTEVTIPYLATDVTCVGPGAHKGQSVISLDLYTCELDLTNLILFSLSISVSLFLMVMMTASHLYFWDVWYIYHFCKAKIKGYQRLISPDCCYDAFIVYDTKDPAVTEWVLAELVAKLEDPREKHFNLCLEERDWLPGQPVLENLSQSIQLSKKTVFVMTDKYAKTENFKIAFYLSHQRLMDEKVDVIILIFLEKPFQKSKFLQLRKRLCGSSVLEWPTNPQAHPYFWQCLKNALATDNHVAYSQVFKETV
# Test Protocol: TLR7 inhibition reporter assay (HEK-Blue SEAP)
# Conditions Used: HEK-Blue cells overexpressing human TLR7, gardiquimod 7.5 μM stimulation
pIC50: −log10 of the molar value.
Measured pIC50 accompanies every entry in the list below.
Value Type: pIC50

                                   molecule                        system_name  value_type  reported_measurement
0  COc1cc(-c2[nH]c3cnc(N4CCNCC4)c(F)c3c2C(C)C)cn2ncnc12 [Example 353]  human TLR7 (Homo sapiens (Human))       pIC50                  9.21
1  COc1cc(-c2[nH]c3cnc(C4CCC(NCC(C)(C)C)C4)cc3c2C(C)C)cn2ncnc12 (stereo not shown) [Example 210]  human TLR7 (Homo sapiens (Human))       pIC50                  7.47
2  Cc1c(-c2[nH]c3cnc(C4CCC(N(C)C(C)C)CC4)c(F)c3c2C(C)C)cn2ncnc2c1C (stereo not shown) [Example 168]  human TLR7 (Homo sapiens (Human))       pIC50                  8.44
3  COc1cc(-c2[nH]c3cnc(C4CCC(NC5COC5)C4)cc3c2C(C)C)cn2ncnc12 (stereo not shown) [Example 273]  human TLR7 (Homo sapiens (Human))       pIC50                  8.07
